Method Notes: Human hepatocytes metabolic stability assay
Type: in vitro ADME
Applied Conditions: cryopreserved hepatocytes
Readout: CLint scaled at 1 μM (mL/min/kg)
Return type: number; implicit unit mL/min/kg.

So what's the measured CLint scaled at 1 μM for this one? COc1ccc2c(c1OCc1ccccc1)C[C@@H](C(=O)O)N(C(=O)C(c1ccccc1)c1ccccc1)C2 [EMA401]
66

* * *

Method Notes: In vivo pharmacokinetic study in rats
Applied Conditions: male, Sprague Dawley, rat, plasma, po, 10 mg/kg
Readout: bioavailability (%)
Give your result in % as a bare value.

Please give the measured bioavailability for this compound: COc1ccc2c(c1OCc1ccccc1)C[C@@H](C(=O)O)N(C(=O)C(c1ccccc1)c1ccccc1)C2 [EMA401]
12
